Test: in vitro
Assay type: cell-based
Conditions: human

{"STRUCTURE": "C=C(C)[C@@H](CC=C(C)C)C[C@@]12C[C@@H](CC=C(C)C)C(C)(C)[C@@](CC=C(C)C)(C(=O)C(C(=O)c3ccc(O)c(O)c3)=C1O)C2=O", "cytotoxicity at 100 μg/ml, %": 83.4}

---

Assay: in vitro
Assay type: cell-based
Conditions: human

{"COMPOUND": "C=C(C)[C@@H](CC=C(C)C)C[C@@]12C[C@@H](CC=C(C)C)C(C)(C)[C@@](CC=C(C)C)(C(=O)C(C(=O)c3ccc(O)c(O)c3)=C1O)C2=O [Garcinol]", "cytotoxicity at 3.13 μg/ml, %": -14.7}

---

Test: in vitro
Assay type: cell-based
Settings: human

{"STRUCTURE": "C=C(C)[C@@H](CC=C(C)C)C[C@@]12C[C@@H](CC=C(C)C)C(C)(C)[C@@](CC=C(C)C)(C(=O)C(C(=O)c3ccc(O)c(O)c3)=C1O)C2=O", "UNIT_ANNOTATION": "%", "cytotoxicity at 1.56 μg/ml": -12.1}

Taken from patent US20130281544A1.
